- Tested on: T cells isolated from mouse spleens
- methodDescription: T cell proliferation inhibition (CFSE flow cytometry, anti-CD3/anti-CD28 stimulation)
- Type: cell-based
- assaySetup: Mus musculus, T-cell, 72 h, compound 100 nM, mouse spleen T cells, 3 days, read-out: Proliferation inhibition rate (%)

# compound, inhibition at 0.1 µM
data = [
    ("COc1cc2c(cc1OC)CN(CCCCCCCCCCCCNC(=O)c1cccnc1N)CC2 [Compound 125]", "100%"),
    ("Nc1ncccc1C(=O)NCCCCCCCCCCCCN1CCN(Cc2ccc(F)cc2)CC1 [Compound 27]", "83.3%"),
    ("CN1CCN(CCCCCCCCCCCCNC(=O)c2ccccc2C(=O)NC2CCCCC2)CC1 [Compound 191]", "0%"),
    ("Nc1ncccc1C(=O)NCCCCCCCCCCCCn1ncc2ccc(Cl)nc21 [Compound 123]", "4.78%"),
    ("CCOC(=O)C1CCN(CCCCCCCCCCCCNC(=O)c2cccnc2N)CC1 [Compound 103]", "100%"),
    ("O=C(NCCCCCCCCCCCCF)c1cccnc1S [Compound 62]", "0%"),
    ("CN(C)C1CCCCN(CCCCCCCCCCCCNC(=O)c2cccnc2N)C1 (stereo not drawn) [Compound 45]", "100%"),
    ("CCNCCCCCCCCCCCCNC(=O)c1cccnc1N [Compound 98]", "-3.95%"),
    ("CN1CCN(CCCCCCCCCCCCNC(=O)c2ccccc2-c2ncc[nH]2)CC1 [Compound 192]", "-0.84%"),
    ("Cc1nccn1-c1cccc(C(=O)NCCCCCCCCCCCCN2CCN(C)CC2)c1 [Compound 207]", "-3.91%"),
    ("Nc1ncccc1C(=O)NCCCCCCCCCCN1CCOCC1 [Compound 63]", "4.85%"),
    ("COCCN1CCN(CCCCCCCCCCCCNC(=O)c2cccnc2N)CC1 [Compound 95]", "100%"),
    ("O=C(NCCCCCCCCCCCCF)c1cccnc1Br [Compound 58]", "1.78%"),
    ("CN1CCN(CCCCCCCCCCCCNC(=O)c2ccnc(-c3ccccn3)c2)CC1 [Compound 195]", "2.81%"),
    ("Nc1nc(NC(=O)CCCCCCCCCCCCN2CCN(CCO)CC2)nc2nc[nH]c12 [Compound 15]", "100%"),
    ("Nc1ncccc1C(=O)NCCCCCCCCCCCCn1nnc2cccnc21 [Compound 88]", "4.29%"),
    ("Nc1ncccc1C(=O)NCCCCCCCCCCCCn1ccc2c(Cl)c(I)cnc21 [Compound 109]", "8.48%"),
    ("CN1CCN(CCCCCCCCCCCCNC(=O)c2ccncc2N)CC1 [Compound 209]", "1.59%"),
    ("CN1CCN(CCCCCCCCCCCCNC(=O)c2c(Cl)cncc2Cl)CC1 [Compound 201]", "6.66%"),
    ("CN1CCN(CCCCCCCCCCCCNC(=O)c2cccc(N)c2I)CC1 [Compound 197]", "10.3%"),
    ("Cc1nnc(C)n1CCCCCCCCCCCCNC(=O)c1cccnc1N [Compound 56]", "2.91%"),
    ("CCOc1cc(C(C)(C)C)ccc1C(=O)NCCCCCCCCCCCCN1CCN(C)CC1 [Compound 216]", "2.32%"),
    ("CN1CCN(CCCCCCCCCCCCNC(=O)c2ccncc2Cl)CC1 [Compound 199]", "0%"),
    ("Nc1ncccc1C(=O)NCCCCCCCCCCCCN1CCC(O)CC1 [Compound 47]", "100%"),
    ("COc1ccc(C(=O)NCCCCCCCCCCCCN2CCN(C)CC2)nc1 [Compound 204]", "-0.14%"),
    ("Nc1ncccc1C(=O)NCCCCCCCCCCCCN1CCc2ccccc2C1 [Compound 3]", "0%"),
    ("Nc1ncccc1C(=O)NCCCCCCCCCCCCN1CCSC1 [Compound 31]", "77.2%"),
    ("CN1CCN(C2CCN(CCCCCCCCCCCCNC(=O)c3cccnc3N)CC2)CC1 [Compound 124]", "20%"),
    ("Nc1ncccc1C(=O)NCCCCCCCCCCCCN1CCc2ccccc21 [Compound 89]", "100%"),
    ("CN1CCN(CCCCCCCCCCCCNC(=O)c2ccc3[nH]cnc3c2)CC1 [Compound 91]", "100%"),
]
